kon overview
assay-target: T1, recombinant human ASM protein (human, UniProt P17405 47-630)
T1 construct: Recombinant human ASM in solution; also called acid sphingomyelinase (ASM) protein
T1 sequence: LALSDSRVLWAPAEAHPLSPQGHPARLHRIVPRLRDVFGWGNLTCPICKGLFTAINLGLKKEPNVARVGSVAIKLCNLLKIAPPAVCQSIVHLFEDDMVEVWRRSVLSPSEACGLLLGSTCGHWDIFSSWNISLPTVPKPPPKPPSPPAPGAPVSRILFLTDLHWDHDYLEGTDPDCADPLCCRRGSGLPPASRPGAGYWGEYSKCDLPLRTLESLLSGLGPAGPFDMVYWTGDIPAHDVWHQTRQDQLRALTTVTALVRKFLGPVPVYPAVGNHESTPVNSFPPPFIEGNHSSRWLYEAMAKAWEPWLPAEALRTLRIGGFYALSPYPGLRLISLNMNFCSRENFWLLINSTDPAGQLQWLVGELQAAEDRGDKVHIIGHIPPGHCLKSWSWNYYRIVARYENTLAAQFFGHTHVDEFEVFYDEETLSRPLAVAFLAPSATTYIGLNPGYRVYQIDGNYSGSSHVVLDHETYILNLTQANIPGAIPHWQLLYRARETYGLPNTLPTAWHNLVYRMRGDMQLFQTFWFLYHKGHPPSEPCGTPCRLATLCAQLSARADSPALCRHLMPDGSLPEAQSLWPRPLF
procedure-details: BLI (Octet), antibody on AHC sensor

{"binder": "#9104v-L64 (antibody, human IgG4 S228P, lambda, V domains shown, Full-length IgG, lambda) VH: EVQLLESGGGLVQPGGSLRLSCAASGFTFSNYYMSWVRQAPGKGLEWVSGIYYGSGNIYYADSVKGRFTISRDNSKNTLYLQMNSLRAEDTAVYYCARDTPGFDYWGQGTLVTVSS VL: QSVLTQPPSASGTPGQRVTISCTGSSSNIGNNAVNWYQQLPGTAPKLLIYYDYFSHSGVPDRFSGSKSGTSASLAISGLRSEDEADYYCGAWDYSLSAYVFGGGTKLTVLG", "kon, M⁻¹ s⁻¹": 383000}
{"binder": "#9104v-L46 (antibody, human IgG4 S228P, lambda, V domains shown, Full-length IgG, lambda) VH: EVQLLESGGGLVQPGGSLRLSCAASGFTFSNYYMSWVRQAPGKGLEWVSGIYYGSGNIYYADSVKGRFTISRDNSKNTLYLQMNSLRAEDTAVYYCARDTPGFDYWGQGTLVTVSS VL: QSVLTQPPSASGTPGQRVTISCTGSSSNIGNNAVNWYQQLPGTAPKLLIYYDSYRSWGVPDRFSGSKSGTSASLAISGLRSEDEADYYCGAWDYSLSAYVFGGGTKLTVLG", "kon, M⁻¹ s⁻¹": 293000}
{"binder": "#9104v-L27 (antibody, human IgG4 S228P, lambda, V domains shown, Full-length IgG, lambda) VH: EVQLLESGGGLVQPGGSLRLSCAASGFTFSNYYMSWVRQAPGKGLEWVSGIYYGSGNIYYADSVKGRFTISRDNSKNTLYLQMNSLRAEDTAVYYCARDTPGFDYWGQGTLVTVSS VL: QSVLTQPPSASGTPGQRVTISCTGSSSNIGNNAVNWYQQLPGTAPKLLIYYDSFRQSGVPDRFSGSKSGTSASLAISGLRSEDEADYYCGAWDYSLSAYVFGGGTKLTVLG", "kon, M⁻¹ s⁻¹": 348000}
{"binder": "#9104v-L39 (antibody, human IgG4 S228P, lambda, V domains shown, Full-length IgG, lambda) VH: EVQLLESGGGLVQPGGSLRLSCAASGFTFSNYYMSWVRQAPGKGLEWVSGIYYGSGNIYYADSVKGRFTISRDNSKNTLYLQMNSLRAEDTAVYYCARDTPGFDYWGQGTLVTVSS VL: QSVLTQPPSASGTPGQRVTISCTGSSSNIGNNAVNWYQQLPGTAPKLLIYYDSYRPGGVPDRFSGSKSGTSASLAISGLRSEDEADYYCGAWDYSLSAYVFGGGTKLTVLG", "kon, M⁻¹ s⁻¹": 291000}
